Source of measurements: patent US20230233684A1

- Assay details: Solubility of free fatty acids in histidine acetate buffer pH 5.5, visible particles by Seidenader
- Type: physicochemical
- Condition details: 20 mM histidine acetate buffer with 0.04% PS20, 5 °C, aqueous with cosolvent or surfactant or cyclodextrin, kinetic from dmso stock; lauric and myristic acid together; histidine acetate buffer pH 5.5, 0.04% PS20; 2-8° C.; 28 days; Seidenader and E/P box; read-out: Solubility limit (concentration at which free fatty acids exceeded the solubility limit)
Reported endpoint: solubility at 28 days

Ask: solubility at 28 days for CCCCCCCCCCCC(=O)O ?
Result: < 12.5 µg/mL

* * *

- Assay details: Solubility of free fatty acids in histidine acetate buffer pH 5.5, visible particles by Seidenader
- Assay type: physicochemical
- Condition details: 5 °C, pH 5.5, aqueous with cosolvent or surfactant or cyclodextrin, kinetic from dmso stock
Reported endpoint: solubility at 28 days

Ask: solubility at 28 days for CCCCCCCCCCCCCC(=O)O ?
Result: < 5 µg/mL
